- assay overview: AUC in Wistar Han rat plasma 10 mg/kg, po measured for 15 to 1440 mins by LC-MS/MS analysis
- Format: ADME, organism-based
readout label: AUC (µM·h)
Please state the figure in µM·h; there is no need to write the unit.

# annotated cases, reported AUC shown
mol | readout label | quantitative readout
CCC(=O)CCCCC[C@H](NC(=O)[C@H]1CC12CCN(C)CC2)c1ncc(-c2cc3ccc(C)nc3cc2OC)[nH]1 | AUC | 0.98
CCC(=O)CCCCC[C@H](NC(=O)[C@H]1CC12CCN(CC)CC2)c1ncc(-c2cc3cccnc3nc2OC)o1 | AUC | 9.7

Would you kindly look at the next entry?
Report AUC for `CCC(=O)CCCCC[C@H](NC(=O)[C@H]1CC12CCN(CC)CC2)c1ncc(-c2cc3cn(C)nc3cc2OC)o1` please.
2.3
